B1: TRIB1 (parent)
chain: EIGTSDQIVPEYQEDSDISSFFC

Variants of: B1
method-summary: protein stability index of a GFP-peptide fusion (GPS, HEK-293T) (PSI 1-6); higher = more stable;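 also: lentivirally expressed fusions sorted by FACS into six bins by GFP to DsRed ratio, PSI derived from sequencing read proportions per bin multiplied by bin number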
protocol-conditions: c terminus: native
Grouping key: protein stability index. Bins: lower band (below 3), central band (3 to below 4), upper band (4 or more)

C23R upper band

Req: Textbook exercise: identify the category of the variant given here, C23Q , according to its measured value.
Resp: central band

Req: Textbook exercise: identify the category of the variant given here, Q13S , according to its measured value.
Resp: lower band

Req: Lab note: sort D15M into the matching protein stability index band.
Resp: lower band

Req: The entry to classify is I8W ; which class holds it?
Resp: upper band

Req: # bin label for P10G
Resp: upper band

Req: For this variant, which bin applies? V9I
Resp: upper band

Req: Which band does E1W fall in?
Resp: lower band

Req: Form: Item = S5T ; Class = ?
Resp: lower band

Req: Just checking, what class would you give D15T here?
Resp: central band

Req: Field: class (protein stability index) — entry: S16M
Resp: lower band

Req: Just checking, what class would you give S20G here?
Resp: central band

Req: Kindly identify the class of D17F .
Resp: central band

Req: Please report the category associated with I8S , nothing else.
Resp: upper band

Req: Where would E11G land among the classes by reported protein stability index?
Resp: lower band

Req: Please classify: E14R
Resp: upper band

Req: Hi, small favor: classify P10W by its protein stability index when you get a moment.
Resp: upper band

Req: Which protein stability index band matches F21M ?
Resp: central band

Req: Hello team, could you let me know which band the following variant falls into: G3A
Resp: lower band

Req: Could you place D15W in its proper category? Many thanks.
Resp: lower band

Req: Please indicate the class for S20P based on its protein stability index.
Resp: central band

Req: Please classify: I18P
Resp: lower band

Req: Hey, which category is S16H in, do you know?
Resp: lower band
